- System: Toll-like receptor 4/Ly96 (Mus musculus, UniProt Q9JHF9+Q9QUK6)
- Sequence (Q9QUK6 whole entry): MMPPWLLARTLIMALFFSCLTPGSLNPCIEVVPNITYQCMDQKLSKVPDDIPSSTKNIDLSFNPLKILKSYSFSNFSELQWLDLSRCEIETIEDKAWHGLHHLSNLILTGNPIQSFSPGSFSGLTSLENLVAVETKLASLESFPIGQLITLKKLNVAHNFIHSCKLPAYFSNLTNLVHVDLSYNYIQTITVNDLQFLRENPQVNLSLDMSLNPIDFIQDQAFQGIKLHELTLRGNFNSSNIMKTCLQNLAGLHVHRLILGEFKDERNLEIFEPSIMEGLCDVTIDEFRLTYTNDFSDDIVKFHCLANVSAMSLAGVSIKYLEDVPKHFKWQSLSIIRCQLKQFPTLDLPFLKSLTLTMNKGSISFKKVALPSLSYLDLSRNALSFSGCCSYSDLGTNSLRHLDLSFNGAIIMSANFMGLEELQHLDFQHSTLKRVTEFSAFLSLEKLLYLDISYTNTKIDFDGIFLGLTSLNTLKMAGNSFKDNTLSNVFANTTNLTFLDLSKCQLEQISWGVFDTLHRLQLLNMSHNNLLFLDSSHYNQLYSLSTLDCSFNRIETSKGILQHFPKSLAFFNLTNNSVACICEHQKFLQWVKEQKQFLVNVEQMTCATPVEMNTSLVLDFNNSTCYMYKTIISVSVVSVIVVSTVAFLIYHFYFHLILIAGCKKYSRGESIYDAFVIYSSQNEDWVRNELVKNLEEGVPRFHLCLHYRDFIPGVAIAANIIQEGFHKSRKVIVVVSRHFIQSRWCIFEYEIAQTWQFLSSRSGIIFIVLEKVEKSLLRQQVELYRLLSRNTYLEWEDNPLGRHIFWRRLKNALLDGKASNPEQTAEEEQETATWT
- Sequence (Q9JHF9 whole entry): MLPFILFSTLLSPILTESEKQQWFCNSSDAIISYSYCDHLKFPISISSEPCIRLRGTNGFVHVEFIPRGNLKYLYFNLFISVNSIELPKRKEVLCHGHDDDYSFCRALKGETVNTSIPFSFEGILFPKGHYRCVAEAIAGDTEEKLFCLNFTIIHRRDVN
- Test Details: Inhibition of MD2-TLR4 protein-protein interaction in ICR mouse peritoneal macrophages assessed as reduction in LPS-induced TNFalpha production preincubated for 2 hrs followed by LPS-stimulation and measured after 22 hrs by ELISA
Measured Endpoint: IC50 (µM)

(a) O=C(Nc1ccc2[nH]nc(-c3ccc4c(ccn4CCO)c3)c2c1)c1c(Cl)cccc1Cl
(b) O=C(CCCl)Nc1ccc2[nH]nc(-c3ccc4c(ccn4CCO)c3)c2c1
Input line: Determine, for a and b , which has the greater value of IC50. Write down the label of the entry you select.
Output line: a
(a: 6.31 µM, b: 3.47 µM)
